- target: hPR (Homo sapiens, UniProt P06401)
- Sequence (P06401 679-933 limits assumed): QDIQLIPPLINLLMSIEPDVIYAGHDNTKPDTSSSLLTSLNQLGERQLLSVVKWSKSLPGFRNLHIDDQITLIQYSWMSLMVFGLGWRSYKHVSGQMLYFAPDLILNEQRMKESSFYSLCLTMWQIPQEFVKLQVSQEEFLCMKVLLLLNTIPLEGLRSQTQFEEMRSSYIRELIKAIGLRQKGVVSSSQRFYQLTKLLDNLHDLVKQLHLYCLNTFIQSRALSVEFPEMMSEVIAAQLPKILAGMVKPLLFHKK
- method: T47D alkaline phosphatase assay, agonist mode
- Format: cell-based
- measurement.conditions: T47D, T47D human breast cancer cells; read-out: hPR Agonist T47D cells Eff. (%)
endpoint.name: Emax
Express the reported value numerically, then name its unit.

Reported Emax for CC1=CC(C)(C)Nc2ccc3c(c21)C(CC(=O)c1ccccc1)Oc1c(F)cc(F)cc1-3 (racemic) [Compound 45] : what is it? 77%

Request the reported Emax associated with CC1=CC(C)(C)Nc2ccc3c(c21)/C(=C/c1cccs1)Oc1c(F)cc(F)cc1-3 [Compound 31] 66%

For CC1=CC(C)(C)Nc2ccc3c(c21)/C(=C/c1ccncc1)Oc1c(F)cc(F)cc1-3 [Compound 14] , what is its reported Emax? 58%

May I ask what Emax has been recorded for COc1ccc(F)cc1/C=C1\Oc2c(F)cc(F)cc2-c2ccc3c(c21)C(C)=CC(C)(C)N3 [Compound 26] ? 63%

Entry CC1=CC(C)(C)Nc2ccc3c(c21)C(c1ccc(Cl)c(C)c1)Oc1c(F)cc(F)cc1-3 (racemic) [Compound 37] has what Emax? 50%

For the molecule shown here, CC1=CC(C)(C)Nc2ccc3c(c21)C(c1cccc(C)c1)Oc1c(F)cc(F)cc1-3 (racemic) [Compound 34] , give the reported Emax. 60%

Look at this molecule and give its reported Emax. CC(=O)[C@H]1CC[C@H]2[C@@H]3CCC4=CC(=O)CC[C@]4(C)[C@H]3CC[C@]12C [Prog., progesterone, reference compound] 100%

###

- Test system: immature rabbits
- method: McPhail (Clauberg) rabbit assay of progestational activity
- Assay type: in vivo
- measurement.conditions: Oryctolagus cuniculus; estradiol-primed immature rabbits; glandular changes of the uterus; read-out: potency (MAD in mg/kg), minimum active dose
Decide using minimal effective dose alone. Strictly below 0.5 mg/kg: 1 (yes). Equal to or above 0.5 mg/kg: 0 (no).

Item C#CCC1Oc2c(F)cc(F)cc2-c2ccc3c(c21)C(C)=CC(C)(C)N3 (racemic) : minimal effective dose beneath 0.5 mg/kg, strictly? 1 (yes)

Please state whether minimal effective dose is below 0.5 mg/kg for CC1=CC(C)(C)Nc2ccc3c(c21)/C(=C/c1cc(F)ccc1C)Oc1c(F)cc(F)cc1-3 1 (yes)

Strictly below 0.5 mg/kg in minimal effective dose? CC1=CC(C)(C)Nc2ccc3c(c21)C(c1cccc(C)c1)Oc1c(F)cc(F)cc1-3 (racemic) 0 (no)

API: query returns whether the compound falls strictly under 0.5 mg/kg in minimal effective dose. Query: COc1ccc(F)cc1/C=C1\Oc2c(F)cc(F)cc2-c2ccc3c(c21)C(C)=CC(C)(C)N3 0 (no)

Field: below-cutoff. Rule: recorded minimal effective dose strictly less than 0.5 mg/kg. Subject: CC1=CC(C)(C)Nc2ccc3c(c21)/C(=C/c1cc(F)ccc1F)Oc1c(F)cc(F)cc1-3 1 (yes)

Does this compound meet the criterion minimal effective dose < 0.5 mg/kg? CC1=CC(C)(C)Nc2ccc3c(c21)C(c1ccc(Cl)c(C)c1)Oc1ccc(F)cc1-3 (stereo not drawn) [Formula I X=9-F 4-Cl-3-Me-Ph, reference compound] 0 (no)

State whether 0.5 mg/kg exceeds minimal effective dose recorded for CC1=CC(C)(C)Nc2ccc3c(c21)/C(=C/c1cccc(F)c1)Oc1c(F)cc(F)cc1-3 . 1 (yes)

Is 0.5 mg/kg strictly greater than the compound's reported minimal effective dose? compound: CC1=CC(C)(C)Nc2ccc3c(c21)C(c1ccc(Cl)c(C)c1)Oc1c(F)cc(F)cc1-3 (single isomer, unassigned; (-)) 1 (yes)

Bench note: check whether CC1=CC(C)(C)Nc2ccc3c(c21)/C(=C/c1ccncc1C)Oc1c(F)cc(F)cc1-3 shows minimal effective dose below 0.5 mg/kg 1 (yes)

Hello, is minimal effective dose of the following compound strictly smaller than 0.5 mg/kg? COc1ccccc1/C=C1\Oc2c(F)cc(F)cc2-c2ccc3c(c21)C(C)=CC(C)(C)N3 0 (no)

For CC#CC1Oc2c(F)cc(F)cc2-c2ccc3c(c21)C(C)=CC(C)(C)N3 (single isomer, unassigned; (-)) , is the recorded minimal effective dose below the cut-off of 0.5 mg/kg? 1 (yes)
